- Tested on: HMG-CoA reductase
- Protocol text: HMG-CoA Reductase Inhibition Assay (in vitro, [14C]HMG-CoA to mevalonolactone)
- Format: biochemical
- Condition: IC50 compared with that of compactin determined simultaneously; compactin assigned 100 (footnote b60 prints 10); tested as sodium salt of dihydroxy acid form; solubilized rat liver microsomal enzyme
Measured parameter: Relative Potency

# compound CCN(CC)C(=O)C(C)(C)C(=O)OC1CC(C)C=C2C=CC(C)C(CCC(O)CC(O)CC(=O)O)C21 (centres unmarked) ; its Relative Potency = 22

# compound CC1C=C2C=CC(C)C(CCC(O)CC(O)CC(=O)O)C2C(OC(=O)C(C)(C)C(=O)N2CCOCC2)C1 (centres unmarked) ; its Relative Potency = 20

# compound CNC(=O)C(C)(C)C(=O)OC1CC(C)C=C2C=CC(C)C(CCC(O)CC(O)CC(=O)O)C21 (centres unmarked) ; its Relative Potency = 13

[P] CC1C=C2C=CC(C)C(CCC(O)CC(O)CC(=O)O)C2C(OC(=O)C(C)(C)CC(=O)N(C)C)C1 (centres unmarked)
[Q] CC1C=C2C=CC(C)C(CCC(O)CC(O)CC(=O)O)C2C(OC(=O)C(C)(C)C(=O)N(C)C)C1 (centres unmarked)
Between P and Q , which one shows the smaller Relative Potency number? # respond with the chosen item's label
P
